# MEASURED ON: Pin1 (Homo sapiens)
# MEASUREMENT DESCRIPTION: Pin1 fluorescence polarization competition assay, primary qHTS (HiFluor-488 / Alexa488 probe)
# EXPERIMENTAL SETUP: read-out: Average HTS Efficacy
OBSERVATION TYPE: Emax (%)

- O=C(O)c1cc2cccc([N+](=O)[O-])c2[nH]1: 88
- O=C(O)c1[nH]c2ccccc2c1C(c1cc(Cl)cc([N+](=O)[O-])c1O)c1c(C(=O)O)[nH]c2ccccc12: 79
- NS(=O)(=O)c1cc(C(=O)NC2CCSc3ccccc32)ccc1Cl (stereo not drawn): 83

* * *

# MEASURED ON: Pin1 (Homo sapiens, UniProt Q13526)
# Sequence (Q13526 whole entry): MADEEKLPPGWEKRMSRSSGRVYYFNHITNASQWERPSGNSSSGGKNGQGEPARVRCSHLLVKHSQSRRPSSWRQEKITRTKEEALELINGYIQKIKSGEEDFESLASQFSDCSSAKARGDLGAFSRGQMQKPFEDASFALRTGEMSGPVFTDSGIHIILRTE
# MEASUREMENT DESCRIPTION: Pin1 fluorescence polarization competition assay, primary qHTS (HiFluor-488 / Alexa488 probe);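 further: Pin1 protein with fluorescent peptide probe, compound displacement read by fluorescence polarization, percent inhibition derived from corrected polarization values, concentration-response curves in 1536-well format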
# EXPERIMENTAL SETUP: read-out: Alexa488 Primary Efficacy
OBSERVATION TYPE: Emax (%)

Sample answers from the record:
* Cc1cccc(N(Cc2cc(=O)[nH]c3ccccc23)C(=O)CCl)c1 | 81.3
* O=C(O)c1[nH]c2ccccc2c1C(c1cc(Br)ccc1O)c1c(C(=O)O)[nH]c2ccccc12 | 63
* Cc1c(C(=O)c2no[n+]([O-])c2C(=O)c2cnn(C)c2C)cnn1C | 69

a. Cc1ccc(N(Cc2cc(=O)[nH]c3ccccc23)C(=O)CCl)cc1
b. O=S(=O)(O)c1cc(O)c2cc(Nc3ccccc3)ccc2c1
**Q:** Between item a and item b , which reported Emax is smaller? Select an item and report its label.
**A:** b

P. COc1ccc(S(=O)(=O)N2CCN(C(=O)c3cc4c(s3)CCC4)CC2)cc1
Q. COc1ccc(NC(=O)CN(C)C(O)c2cc(-c3ccco3)nc3ccccc23)cc1 (stereo not shown)
**Q:** Between item P and item Q , which reported Emax is smaller? Select an item and report its label.
**A:** Q
(Q: 28%, P: 85%)

1. Cc1ccc(NC(=O)CN(C)C(=O)c2cccc(-n3cccc3)c2)cc1
2. O=C(O)Cc1c[nH]c2cccc(O)c12
**Q:** Between item 1 and item 2 , which reported Emax is smaller? Select an item and report its label.
**A:** 1

* * *

# MEASURED ON: Pin1 (Homo sapiens)
# MEASUREMENT DESCRIPTION: Pin1 fluorescence polarization competition assay with Tamra-probe (secondary)
OBSERVATION TYPE: IC50 (µM)

Sample answers from the record:
* O=C(O)c1[nH]c2ccccc2c1C(c1cc(Br)ccc1O)c1c(C(=O)O)[nH]c2ccccc12 [Compound 43] | 24
* O=C(O)C1Nc2c(O)cc(Cl)c([N+](=O)[O-])c2C2C=CCC12 (centres unmarked) [Compound 2] | 3
* O=S(=O)(O)c1cc(O)c2cc(Nc3ccccc3)ccc2c1 [Compound 15] | 12

A. COc1ccccc1Nc1ccc2c(O)cc(S(=O)(=O)O)cc2c1 [Compound 14]
B. Cc1ccc(C)n1-c1sccc1C(=O)O [Compound 18]
**Q:** Returns: the argument ( A or B ) having the larger IC50. Select an item and report its label.
**A:** A
(A: 8 µM, B: 2 µM)

* * *

# MEASURED ON: Pin1 (Homo sapiens, UniProt Q13526)
# MEASUREMENT DESCRIPTION: confirmatory Pin1 fluorescence polarization competition assay (Alexa488 reconfirmed);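 further: Pin1 competition with a HiFluor488-labelled peptide probe, read as fluorescence polarization after 10 min at room temperature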
OBSERVATION TYPE: IC50 (µM)

* CC(=O)Nc1cc(=O)c2[nH]o[nH]c=2c1=O | 7

I. O=C(O)c1[nH]c2ccccc2c1C(c1cc(Cl)cc([N+](=O)[O-])c1O)c1c(C(=O)O)[nH]c2ccccc12
II. Cc1ccc(C(=O)c2no[n+]([O-])c2C(=O)c2ccc(C)cc2)cc1
**Q:** Returns: the argument ( I or II ) having the larger IC50. Select an item and report its label.
**A:** I
(I: 12 µM, II: 0.1 µM)

Where these numbers come from: patent US11129835B2
